These measurements were taken from patent US9540424B2.

assay_procedure: Analytical size exclusion chromatography (SEC) of SABAs
Assay type: physicochemical
setup_conditions: midscaled material
reported_metric: SEC Monomer (%)
One number for each entry, in %.

Answered examples (3):
{"columns": ["molecule", "reported_metric", "readout_number"],
 "data": [
  ["SABA3.1: His-tagged SABA3 sequence (protein, His6 tag) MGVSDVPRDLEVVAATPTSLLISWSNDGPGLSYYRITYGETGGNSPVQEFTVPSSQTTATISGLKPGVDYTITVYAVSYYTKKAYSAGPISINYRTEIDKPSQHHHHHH", "SEC Monomer (%)", 99],
  ["SABA1.1: core SABA1 with N-terminal MGVSDVPRDLE, C-terminal EIDKPSQ and His6 tag; SEQ ID NO: 89 (protein) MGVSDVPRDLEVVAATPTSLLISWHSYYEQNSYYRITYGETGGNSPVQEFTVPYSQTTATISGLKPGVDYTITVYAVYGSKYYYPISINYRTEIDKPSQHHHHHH", "SEC Monomer (%)", 92.3],
  ["SABA2.1: His-tagged SABA2 sequence (protein, His6 tag) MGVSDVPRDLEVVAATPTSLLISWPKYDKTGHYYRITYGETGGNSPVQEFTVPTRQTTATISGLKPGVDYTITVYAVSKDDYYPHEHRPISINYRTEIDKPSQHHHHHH", "SEC Monomer (%)", 91]
]}

Then this molecule:
query: Which SEC Monomer (%) value is on record for SABA5.1: His-tagged SABA5 sequence (protein, His6 tag) MGVSDVPRDLEVVAATPTSLLISWEDDSYYSRYYRITYGETGGNSPVQEFTVPSDLYTATISGLKPGVDYTITVYAVTYDVTDLIMHEPISINYRTEIDKPSQHHHHHH ?
result: 88
